These data points were gathered from PubChem BioAssay (NCI).

Measurement Description: NCI Yeast Anticancer Drug Screen. Data for the mec2-1 strain (AID 157)
Run Parameters: S. cerevisiae mec2-1 strain, at 50.0 µM, hits give high values
Compounds without any hit were thinned out: in the full panel of roughly 79,000, 15% have a hit. The source made the active and inactive calls. Rule as the data show it: active = growth inhibition above about 70%; inactive = the rest.
Test Readout: growth inhibition

>>> result("O=C(NNC(=O)c1ccccc1Br)c1ccccc1Br")
"-48.8% (inactive)"
>>> result("Cc1nc(Nc2ccc([N+](=O)[O-])cc2)sc1C(=O)/C=C/c1ccc(N(C)C)cc1")
"-6.85% (inactive)"
>>> result("COc1cccc(C(C#N)c2cnc3ccccc3n2)c1 (configuration not stated)")
"14.6% (inactive)"
>>> result("O=C1NN=C(C(O)c2ccccc2)C1(O)c1ccccc1 (configuration not stated)")
"-6.25% (inactive)"
>>> result("C1C[OH+]CCNCC[OH+]CC[OH+]CCN1.[Cl-].[Pt+4]")
"-29.2% (inactive)"
>>> result("O=C1/C(=C/c2ccc(Br)cc2)CCC/C1=C\\c1ccc(Br)cc1")
"13% (inactive)"
>>> result("CC1=C(C(=O)CC(=O)C(=O)Nc2ccc(C)cc2C)Sc2ccccc2N1")
"-20.9% (inactive)"

====

Measurement Description: NCI Yeast Anticancer Drug Screen. Data for the sgs1 mgt1 strain (AID 161);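 also: 0% = growth of cultures given vehicle only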
Run Parameters: S. cerevisiae sgs1 mgt1 strain, at 50.0 µM, hits give high values
Compounds without any hit were thinned out: in the full panel of roughly 79,000, 15% have a hit.
Test Readout: growth inhibition (%)

>>> numeric_value("O=c1[nH]c(=O)c2nc3cc(-c4ccc5nc6[nH]c(=O)[nH]c(=O)c6nc5c4)ccc3nc2[nH]1")
12.4
>>> numeric_value("O=C(CSSCC(=O)Nc1ccccc1O)Nc1ccccc1O")
-11.7
>>> numeric_value("CCCCNc1nc(SC)nc2nc[nH]c12")
-41.1
>>> numeric_value("CC1(C)N=C(N)N=C(N)N1c1ccc(C(F)(F)F)cc1")
7.85
>>> numeric_value("C/C(=N\\N=C(/C)c1ccc(N)cc1)c1ccc(N)cc1")
1.9
>>> numeric_value("CC=C=C(C)CN")
-9.6
>>> numeric_value("CC(O)(c1ccc(Cl)cc1)c1ccc(Cl)cc1")
1.2
>>> numeric_value("OCc1ccc(CO)cc1")
-15.6
>>> numeric_value("C=C1C(=O)C23C(O)CC4C(C)(C)[C@@H](OC(C)=O)CCC4(C)[C@]2(O)CCC1[C@@H]3O (stereo partly drawn)")
44.9
>>> numeric_value("CCOC1=C/C(=N\\NC(N)=O)CCC1")
-1.1
>>> numeric_value("CCN1c2nc3ccccc3nc2N(CC)c2nc3ccccc3nc21")
23.9
>>> numeric_value("COc1ccc(C2ON(c3ccccc3)CC=C2C)cc1 (stereo not drawn)")
5.55
>>> numeric_value("Nc1c(S(=O)(=O)O)cc2cc(S(=O)(=O)O)ccc2c1N")
6
>>> numeric_value("CCCN=C(NC(=O)c1ccc(Cl)cc1)SC")
-6.05
>>> numeric_value("CCOc1ccc2c(N=[N+]=[N-])cc(C)nc2c1")
-18.2
>>> numeric_value("CC1(O)CCC2CC1C2(C)CO (stereo not drawn)")
-9.15
>>> numeric_value("CCc1nc2c([nH]1)C(=O)c1ccccc1C2=O")
44.2
>>> numeric_value("CC(C)/C=C1\\CCC(CN2CCCC2)C1=O (stereo not drawn)")
48.5

====

Measurement Description: NCI Yeast Anticancer Drug Screen. Data for the sgs1 mgt1 strain (AID 161);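 also: 0% = growth of cultures given vehicle only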
Run Parameters: S. cerevisiae sgs1 mgt1 strain, at 50.0 µM, hits give high values
The panel holds about 79,000 compounds, 15% with a hit somewhere; the sample as a whole holds those more often.
Test Readout: growth inhibition (%)

>>> numeric_value("CN(C)CCN(C=O)CCN(C)C")
4.5
>>> numeric_value("O=C(O)CCCCCCc1ccc2ccccc2n1")
16.5
>>> numeric_value("O=C1C=Cc2ccccc2/C1=C/c1nc(-c2ccc(Cl)cc2)oc1O")
-8.75
>>> numeric_value("CC(O)C(=O)NN (stereo not given)")
-4.95
>>> numeric_value("NC(=O)c1ccccc1N=NNc1ccccc1")
2.8
>>> numeric_value("COC(=O)Cc1c(-c2[nH]c3ccccc3c2CC(=O)OC)[nH]c2ccccc12")
6
>>> numeric_value("COC1OC2COC(C)(c3ccccc3)OC2C(O)C1[NH-].COC1OC2COC(C)(c3ccccc3)OC2C(O)C1[NH-].[Cl][Pt+2][Cl] (stereo not given)")
-7.8
>>> numeric_value("CCOC(=O)CCc1ccc(NC(=O)/C=C/c2ccc([N+](=O)[O-])o2)cc1")
56.3
>>> numeric_value("C=CC(O)C1OC2OC(C)(C)OC2C2OC(C)(C)OC12 (stereo not given)")
2.7
>>> numeric_value("O=COCc1ccc(Cl)cc1Cl")
-5.65
>>> numeric_value("Cn1c(=O)c2c(ncn2CCNC(c2ccccc2)c2cccc(Cl)c2)n(C)c1=O (stereo not given)")
4.35
>>> numeric_value("CCN(CC)C1(C(F)C(F)(F)F)OCC2(CO1)COC(C(F)C(F)(F)F)(N(CC)CC)OC2 (stereo not given)")
-0.4
>>> numeric_value("CC(=O)Oc1cc2c(c3ccc4ccccc4c13)CCc1ccccc1-2")
10.1
>>> numeric_value("O=C1CC(NC(=O)C(F)(F)F)c2c(Br)sc(N3CCNCC3)c21 (stereo not given)")
-25.2
>>> numeric_value("CCCNN(CCC)C(N)=O")
-5.75

====

Listed here are compounds together with their documented growth inhibition.
Measurement Description: NCI Yeast Anticancer Drug Screen. Data for the bub3 strain (AID 167)
Run Parameters: S. cerevisiae bub3 mutant strain, at 50.0 µM, hits give high values
About 79,000 compounds went through this panel and 15% of them were active in at least one assay; those are over-represented in the sample as a whole.
Test Readout: growth inhibition (%)

>>> numeric_value("O=C1NC2(CCCCC2)N=C2C(Cl)CCCC12Cl (stereo not given)")
-1.85
>>> numeric_value("OC1CNc2c(ccc3ccccc23)C1 (stereo not given)")
-38
>>> numeric_value("COc1cc2c(c(Cl)c1OC)CCN(C)CC2c1ccccc1 (stereo not given)")
-1.45
>>> numeric_value("CC1OC(n2ccc(=O)[nH]c2=O)C=C(OC(=O)c2ccccc2)C1=O (stereo not given)")
-9.55
>>> numeric_value("CC(C)CCCC(C)C1CCC2C3CC(=O)C4C=CCCC4(C)C3CCC12C (stereo not given)")
2.65
>>> numeric_value("Nc1ccn(C2OC(CO)C(O)C2Br)c(=O)n1 (stereo not given)")
-10.1
>>> numeric_value("CCCCC/C(C)=N\\O")
-7.15
>>> numeric_value("O=C(CCS(=O)(=O)CCC(=O)c1cccs1)c1cccs1")
-3.55
>>> numeric_value("O=C(CCl)Oc1cccc2cccnc12")
-2.45
>>> numeric_value("O=C(CN1C(=O)c2cccc3c(Br)ccc(c23)C1=O)c1ccc(F)cc1")
-12

====

Measurement Description: NCI Yeast Anticancer Drug Screen. Data for the rad50 strain (AID 155);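 also: 0% = growth of vehicle-only cultures of the same strain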
Run Parameters: S. cerevisiae rad50 strain growth inhibition; at 50.0 µM; hits give high values
Compounds without any hit were thinned out: in the full panel of roughly 79,000, 15% have a hit. Calls of active or inactive are those of the source. No stated cut-off is given here; in the data, active means growth inhibition above about 70%; inactive means the rest.
Listed here are molecules together with their documented growth inhibition.
Test Readout: growth inhibition

>>> result("O=S1(=O)OCCOS(=O)(=O)C1(F)Br")
"-38.4% (inactive)"
>>> result("O/N=C1/C(=C/c2ccccc2)CCCC1C(NO)c1ccccc1 (centres undefined)")
"27.9% (inactive)"
>>> result("CCOC(=O)C(Cc1ccc(O)cc1)NC(=O)c1cc2c(cn1)[nH]c1ccccc12 (centres undefined)")
"11% (inactive)"
>>> result("Oc1ccc(Br)cc1/C=N\\NC(=S)Nc1ccc2cn[nH]c2c1")
"47.1% (inactive)"

====

Listed here are compounds together with their documented growth inhibition.
Measurement Description: NCI Yeast Anticancer Drug Screen. Data for the rad50 strain (AID 155);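 also: 0% = growth of vehicle-only cultures of the same strain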
Run Parameters: S. cerevisiae rad50 strain growth inhibition; at 50.0 µM; hits give high values
This is part of a sample that, as a whole, favours compounds with a hit. Of some 79,000 tested, about 15% had one in any assay.
Test Readout: growth inhibition (%)

>>> numeric_value("CCC(c1ccc(N(C)C)cc1)c1ccc(N(C)C)cc1")
3.8
>>> numeric_value("Cc1nn2c(c1C#N)NNc1c-2sc(=N)nnc1=O")
-1.6
>>> numeric_value("COc1cnnc2ccccc12")
12.8
>>> numeric_value("O=C(O)CNCc1ccc(F)cc1")
-1.85
>>> numeric_value("COc1cccc(N=Cc2ccc(C=Nc3cccc(OC)c3)cc2)c1")
5.95
>>> numeric_value("O=C1CC2COc3ccccc3C2=NN1c1ccccc1 (centres undefined)")
13.6
>>> numeric_value("Nc1nc(N)c(N=Nc2ccc(S(=O)(=O)O)cc2)c(N)n1")
-5.35
>>> numeric_value("O=C(Nc1ccccc1)Oc1cccc(-c2ccc(-c3ccccc3)cc2)c1")
29.4
>>> numeric_value("CN(C)C(=O)/N=C1\\SC(=Nc2ccccc2)C(=Nc2ccccc2)N1c1ccc([N+](=O)[O-])cc1")
-1.65
>>> numeric_value("Cc1ccc(N=C=O)cc1N1C(=O)N(c2cc(N=C=O)ccc2C)C1=O")
-41.5
>>> numeric_value("O=C1CCC=Cc2c(O)ccc(O)c21")
8.65
>>> numeric_value("Cc1ccc(C(O)c2ccccc2)cc1 (centres undefined)")
25.4
>>> numeric_value("Cc1ccccc1C1(O)c2cccc3cccc(c23)C1(O)c1ccccc1C (centres undefined)")
2.95
>>> numeric_value("c1ccc(-c2coc(-c3ccccc3)n2)cc1")
1.15
